- experimental-system: Taq Δ271 F667Y E681W (polymerase B) (Thermus aquaticus, UniProt P19821, E681W/F272M/F667Y)
- Construct: made in house; host or cells: E. coli
- Sequence (P19821 272-832 F272M/F667Y/E681W): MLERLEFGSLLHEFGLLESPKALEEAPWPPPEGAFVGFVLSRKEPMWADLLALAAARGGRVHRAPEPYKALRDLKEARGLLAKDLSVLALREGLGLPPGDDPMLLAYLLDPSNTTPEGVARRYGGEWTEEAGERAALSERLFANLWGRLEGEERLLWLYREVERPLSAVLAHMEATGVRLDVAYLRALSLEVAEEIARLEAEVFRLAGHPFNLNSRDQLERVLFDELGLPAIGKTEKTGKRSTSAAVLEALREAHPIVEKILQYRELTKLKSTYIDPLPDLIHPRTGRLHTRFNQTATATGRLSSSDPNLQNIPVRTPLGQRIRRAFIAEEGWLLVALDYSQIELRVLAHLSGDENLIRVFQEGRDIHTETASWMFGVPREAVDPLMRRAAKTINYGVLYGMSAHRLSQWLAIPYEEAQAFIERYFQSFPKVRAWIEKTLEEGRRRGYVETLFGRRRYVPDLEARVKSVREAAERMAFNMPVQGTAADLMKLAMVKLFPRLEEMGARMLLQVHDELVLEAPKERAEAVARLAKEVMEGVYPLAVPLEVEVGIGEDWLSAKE
- assay-info: DNA polymerase activity assay with detergent or additive, Taq Δ271 F667Y E681W purified without detergent
- Format: biochemical
- measurement-parameters: additive final concentration 0.01% (w/v)
value-type: Taq Δ271 F667Y E681W activity relative to 0.5% each NP-40 and Tween 20

Please review the entries below; each comes with its answer.
{"molecule": "C[C@H](CCC(=O)[O-])[C@H]1CC[C@H]2[C@@H]3[C@H](O)C[C@@H]4C[C@H](O)CC[C@]4(C)[C@H]3C[C@H](O)[C@]12C.[Na+] [Sodium Cholate]", "result": "− − − (Activity < 20%)"}
{"molecule": "C[C@H](CCC(=O)NCCC[N+](C)(C)CC(O)CS(=O)(=O)[O-])[C@H]1CC[C@H]2[C@@H]3[C@H](O)C[C@@H]4C[C@H](O)CC[C@]4(C)[C@H]3C[C@H](O)[C@]12C (stereo partly drawn)", "result": "− − − (Activity < 20%)"}
{"molecule": "C[C@H](CCC(=O)NCCC[N+](C)(C)CCCS(=O)(=O)[O-])[C@H]1CC[C@H]2[C@@H]3[C@H](O)C[C@@H]4C[C@H](O)CC[C@]4(C)[C@H]3C[C@H](O)[C@]12C", "result": "− − − (Activity < 20%)"}
{"molecule": "CC1=NC[C@H](O)[C@@H](C(=O)O)N1 [Hydroxyectoin]", "result": "− − − (Activity < 20%)"}
{"molecule": "CCCCCCCCC(=O)N(C)C[C@H](O)[C@@H](O)[C@H](O)[C@H](O)CO [Mega-9, Nonyl-N-methylglucamide]", "result": "− − − (Activity < 20%)"}

Next, consider the following molecule.
Request: Give the reported Taq Δ271 F667Y E681W activity relative to 0.5% each NP-40 and Tween 20 for this molecule. CCCCCCCC(=O)N(C)C[C@H](O)[C@@H](O)[C@H](O)[C@H](O)CO [Mega-8, Ocatanoyl-N-mehtylglucamide]
Result: − − − (Activity < 20%)

* * *

- experimental-system: Taq Δ271 F667Y E681W (polymerase B) (Thermus aquaticus, UniProt P19821, E681W/F272M/F667Y)
- Construct: made in house; host or cells: E. coli
- assay-info: DNA polymerase activity assay with detergent or additive, Taq Δ271 F667Y E681W purified without detergent
- Assay type: biochemical
- measurement-parameters: additive final concentration 0.05% (w/v)
value-type: Taq Δ271 F667Y E681W activity relative to 0.5% each NP-40 and Tween 20

{"compound": "C[C@H](CCC(=O)[O-])[C@H]1CC[C@H]2[C@@H]3[C@H](O)C[C@@H]4C[C@H](O)CC[C@]4(C)[C@H]3C[C@H](O)[C@]12C.[Na+] [Sodium Cholate]", "experimental-system": "Taq Δ271 F667Y E681W (polymerase B) (Thermus aquaticus, UniProt P19821, E681W/F272M/F667Y)", "result": "− − − (Activity < 20%)"}
{"compound": "C[C@H](CCC(=O)NCCC[N+](C)(C)CC(O)CS(=O)(=O)[O-])[C@H]1CC[C@H]2[C@@H]3[C@H](O)C[C@@H]4C[C@H](O)CC[C@]4(C)[C@H]3C[C@H](O)[C@]12C (some centres unmarked)", "experimental-system": "Taq Δ271 F667Y E681W (polymerase B) (Thermus aquaticus, UniProt P19821, E681W/F272M/F667Y)", "result": "− − (Activity 20-50%)"}
{"compound": "CCCCCCCC[N+](C)(C)CCCS(=O)(=O)[O-]", "experimental-system": "Taq Δ271 F667Y E681W (polymerase B) (Thermus aquaticus, UniProt P19821, E681W/F272M/F667Y)", "result": "− − − (Activity < 20%)"}
{"compound": "CCCCCCCCCC[N+](C)(C)CCCS(=O)(=O)[O-]", "experimental-system": "Taq Δ271 F667Y E681W (polymerase B) (Thermus aquaticus, UniProt P19821, E681W/F272M/F667Y)", "result": "− − − (Activity < 20%)"}
{"compound": "CC1=NC[C@H](O)[C@@H](C(=O)O)N1 [Hydroxyectoin]", "experimental-system": "Taq Δ271 F667Y E681W (polymerase B) (Thermus aquaticus, UniProt P19821, E681W/F272M/F667Y)", "result": "− − − (Activity < 20%)"}

Continue with the compound presented below.
Request: Answer with the recorded Taq Δ271 F667Y E681W activity relative to 0.5% each NP-40 and Tween 20 for the compound listed here: "C[C@H](CCC(=O)NCCC[N+](C)(C)CCCS(=O)(=O)[O-])[C@H]1CC[C@H]2[C@@H]3[C@H](O)C[C@@H]4C[C@H](O)CC[C@]4(C)[C@H]3C[C@H](O)[C@]12C"
Result: − − (Activity 20-50%)

meta.source: patent US20030134292A1
